# system: HDAC1 enzyme (Homo sapiens, UniProt Q13547)
# Construct: transducing full length HDAC1 and HDAC6 genes into Sf-9 insect cells; GST; purchased SignalChem; host or cells: Sf-9 insect cells
# Sequence (Q13547 whole entry): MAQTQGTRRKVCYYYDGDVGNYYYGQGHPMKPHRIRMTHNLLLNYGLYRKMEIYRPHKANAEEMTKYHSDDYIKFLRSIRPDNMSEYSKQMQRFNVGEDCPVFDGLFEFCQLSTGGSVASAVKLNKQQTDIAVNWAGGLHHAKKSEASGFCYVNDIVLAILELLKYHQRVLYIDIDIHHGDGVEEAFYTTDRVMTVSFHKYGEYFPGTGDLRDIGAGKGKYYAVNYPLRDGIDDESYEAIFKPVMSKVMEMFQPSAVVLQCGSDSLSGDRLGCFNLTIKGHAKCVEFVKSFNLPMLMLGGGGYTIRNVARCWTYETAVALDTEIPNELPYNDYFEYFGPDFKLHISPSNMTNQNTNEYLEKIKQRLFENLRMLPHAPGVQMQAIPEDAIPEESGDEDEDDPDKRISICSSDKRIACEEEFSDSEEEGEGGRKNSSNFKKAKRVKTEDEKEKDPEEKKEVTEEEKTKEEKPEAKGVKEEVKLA
# protocolNotes: HDAC1/6 Enzyme Inhibitory Assay (HDAC-Glo I/II Assay kit), HDAC1
# Format: biochemical
# assayContext: 1 μM test compound; wells without enzyme = 100% inhibition; read-out: HDAC1 inhibitory rate (%) (1 μM)
quantityKind: inhibition at 1 µM (%)
# value in %; strip the unit string

Ask: Please give measured inhibition at 1 µM of the following entry: `CN1CCC[C@H]1C(=O)N[C@@H]1CCCC[C@H]1N1Cc2ccc(-c3noc(C(F)(F)F)n3)cc2C1=O`
Reply: 3

Ask: Please give measured inhibition at 1 µM of the following entry: O=C(N[C@@H]1CCCC[C@H]1N1Cc2ccc(-c3noc(C(F)(F)F)n3)cc2C1=O)C1C[C@@H]1F (stereo partly shown)
Reply: 4

Ask: Please give measured inhibition at 1 µM of the following entry: CC(C)(C)OC(=O)N1CC[C@@H](N2Cc3cc(-c4noc(C(F)(F)F)n4)ccc3C2=O)[C@H](c2ccccc2)C1 (relative stereo)
Reply: -5

Ask: Please give measured inhibition at 1 µM of the following entry: `O=C(Cc1cc(=O)[nH][nH]1)N[C@@H]1CCCC[C@H]1N1Cc2ccc(-c3noc(C(F)(F)F)n3)cc2C1=O`
Reply: 4

Ask: Please give measured inhibition at 1 µM of the following entry: `O=C(N[C@H]1CCCC[C@@H]1N1Cc2ccc(-c3noc(C(F)(F)F)n3)cc2C1=O)[C@H]1CCCO1`
Reply: 5

Ask: Please give measured inhibition at 1 µM of the following entry: O=C1c2cc(-c3noc(C(F)(F)F)n3)ccc2CN1[C@@H]1CCCC[C@H]1c1ccccc1 (relative stereo)
Reply: 52

Ask: Please give measured inhibition at 1 µM of the following entry: `O=C(c1ccccc1)N1CC(N2Cc3ncc(-c4noc(C(F)(F)F)n4)cc3C2=O)C1`
Reply: 31

----------
# system: HDAC6 enzyme (Homo sapiens)
# Construct: transducing full length HDAC1 and HDAC6 genes into Sf-9 insect cells; GST; purchased SignalChem; host or cells: Sf-9 insect cells
# Sequence (Q9UBN7 1-1215): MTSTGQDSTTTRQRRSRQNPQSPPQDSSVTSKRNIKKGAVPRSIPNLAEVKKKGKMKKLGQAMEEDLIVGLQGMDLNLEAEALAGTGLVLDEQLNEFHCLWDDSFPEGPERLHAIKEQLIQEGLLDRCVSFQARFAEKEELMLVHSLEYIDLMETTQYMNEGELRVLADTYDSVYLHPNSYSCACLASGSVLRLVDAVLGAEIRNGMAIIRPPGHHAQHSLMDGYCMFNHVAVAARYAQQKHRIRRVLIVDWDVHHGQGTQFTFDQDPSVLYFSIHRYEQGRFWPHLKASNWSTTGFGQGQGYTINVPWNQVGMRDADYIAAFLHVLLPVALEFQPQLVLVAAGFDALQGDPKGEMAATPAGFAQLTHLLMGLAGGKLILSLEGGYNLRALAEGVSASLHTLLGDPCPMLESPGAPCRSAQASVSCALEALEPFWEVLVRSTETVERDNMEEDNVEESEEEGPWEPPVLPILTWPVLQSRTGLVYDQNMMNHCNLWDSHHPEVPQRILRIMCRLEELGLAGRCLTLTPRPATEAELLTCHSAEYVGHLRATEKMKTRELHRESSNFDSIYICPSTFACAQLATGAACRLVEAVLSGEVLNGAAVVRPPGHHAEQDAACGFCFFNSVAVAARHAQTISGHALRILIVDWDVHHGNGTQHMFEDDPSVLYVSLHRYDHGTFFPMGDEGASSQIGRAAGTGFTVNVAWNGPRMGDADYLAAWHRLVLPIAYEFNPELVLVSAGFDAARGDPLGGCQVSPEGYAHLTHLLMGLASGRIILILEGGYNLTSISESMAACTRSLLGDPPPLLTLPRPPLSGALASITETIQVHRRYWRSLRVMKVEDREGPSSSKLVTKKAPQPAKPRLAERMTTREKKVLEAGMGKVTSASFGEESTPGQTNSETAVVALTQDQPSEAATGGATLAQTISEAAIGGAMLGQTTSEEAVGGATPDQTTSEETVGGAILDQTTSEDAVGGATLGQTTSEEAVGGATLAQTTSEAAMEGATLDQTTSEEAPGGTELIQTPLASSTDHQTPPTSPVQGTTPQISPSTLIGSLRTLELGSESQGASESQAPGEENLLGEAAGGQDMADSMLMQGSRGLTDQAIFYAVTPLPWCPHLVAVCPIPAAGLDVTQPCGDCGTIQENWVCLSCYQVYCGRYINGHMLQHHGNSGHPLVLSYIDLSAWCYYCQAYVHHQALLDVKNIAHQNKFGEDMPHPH
# protocolNotes: HDAC1/6 Enzyme Inhibitory Assay (HDAC-Glo I/II Assay kit), HDAC6
# Format: biochemical
# assayContext: 1 μM test compound; wells without enzyme = 100% inhibition; read-out: HDAC6 inhibitory rate (%) (1 μM)
Could you please report measured inhibition at 1 µM for the items listed next?
# value in %; strip the unit string

Ask: Retrieve inhibition at 1 µM on HDAC6 enzyme (Homo sapiens); query `O=C(N[C@@H]1CCCC[C@H]1N1Cc2ccc(-c3noc(C(F)(F)F)n3)cc2C1=O)[C@H]1CCCO1`
Reply: 100

Ask: Retrieve inhibition at 1 µM on HDAC6 enzyme (Homo sapiens); query Cc1cc(F)ccc1[C@@H]1CNCC[C@H]1N1Cc2ccc(-c3noc(C(F)(F)F)n3)cc2C1=O (relative stereo)
Reply: 98

Ask: Retrieve inhibition at 1 µM on HDAC6 enzyme (Homo sapiens); query `O=C(N[C@@H]1CCCC[C@H]1N1Cc2ccc(-c3noc(C(F)(F)F)n3)cc2C1=O)N1CCOCC1`
Reply: 98

Ask: Retrieve inhibition at 1 µM on HDAC6 enzyme (Homo sapiens); query CN1CC(C(=O)N[C@@H]2CCCC[C@H]2N2Cc3ccc(-c4noc(C(F)(F)F)n4)cc3C2=O)CC1=O (stereo partly shown)
Reply: 79

----------
# system: HDAC9 enzyme (Homo sapiens)
# Construct: transducing full length HDAC9 gene into Sf-9 insect cells; made in house; host or cells: Sf-9 insect cells
# Sequence (Q9UKV0 whole entry, species assumed): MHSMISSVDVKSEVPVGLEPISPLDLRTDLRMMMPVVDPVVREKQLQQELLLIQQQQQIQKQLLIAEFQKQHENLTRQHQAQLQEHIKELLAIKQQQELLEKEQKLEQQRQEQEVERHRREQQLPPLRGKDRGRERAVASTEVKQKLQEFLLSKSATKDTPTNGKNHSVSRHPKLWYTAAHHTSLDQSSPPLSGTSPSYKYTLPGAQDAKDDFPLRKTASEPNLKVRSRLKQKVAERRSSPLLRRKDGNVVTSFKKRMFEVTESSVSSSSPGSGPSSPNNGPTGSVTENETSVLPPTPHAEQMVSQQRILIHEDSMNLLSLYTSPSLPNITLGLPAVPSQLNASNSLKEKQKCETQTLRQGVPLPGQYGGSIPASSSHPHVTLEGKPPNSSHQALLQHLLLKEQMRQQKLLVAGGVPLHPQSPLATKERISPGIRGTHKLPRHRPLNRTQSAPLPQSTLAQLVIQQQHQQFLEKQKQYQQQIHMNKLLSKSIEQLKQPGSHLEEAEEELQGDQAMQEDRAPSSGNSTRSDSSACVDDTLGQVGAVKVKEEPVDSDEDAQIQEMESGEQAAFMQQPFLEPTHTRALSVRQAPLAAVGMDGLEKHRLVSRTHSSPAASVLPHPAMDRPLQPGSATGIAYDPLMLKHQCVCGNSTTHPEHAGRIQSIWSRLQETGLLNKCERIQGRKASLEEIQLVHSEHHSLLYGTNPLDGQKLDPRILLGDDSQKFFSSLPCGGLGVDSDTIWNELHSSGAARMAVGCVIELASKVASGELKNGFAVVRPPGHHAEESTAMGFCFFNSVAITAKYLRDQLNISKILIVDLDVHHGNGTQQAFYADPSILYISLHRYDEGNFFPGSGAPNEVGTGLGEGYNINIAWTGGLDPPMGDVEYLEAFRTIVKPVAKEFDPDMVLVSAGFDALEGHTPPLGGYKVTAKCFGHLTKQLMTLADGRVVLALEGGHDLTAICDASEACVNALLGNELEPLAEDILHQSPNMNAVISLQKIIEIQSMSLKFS
# protocolNotes: HDAC9 Enzyme Inhibitory Assay (HDAC-Glo class IIa)
# Type: biochemical
# assayContext: 1 μM test compound; wells without enzyme = 100% inhibition; read-out: HDAC9 inhibitory rate (%) (1 μM)
In this scheme, each record receives a class according to its inhibition at 1 µM; the ranges are lo (below 50%), mid (50% to below 70%), hi (70% or more)

Ask: Which band does O=C1c2cc(-c3noc(C(F)(F)F)n3)ccc2CN1[C@H]1CCc2ccccc21 [Example 24] fall in?
Reply: mid

Ask: Which band does CC(=O)N1CC(C)(C(=O)N[C@@H]2CCCC[C@H]2N2Cc3ccc(-c4noc(C(F)(F)F)n4)cc3C2=O)C1 [Example 195] fall in?
Reply: mid

Ask: Which band does CN1CCC[C@@H]1C(=O)N[C@@H]1CCCC[C@H]1N1Cc2ccc(-c3noc(C(F)(F)F)n3)cc2C1=O [Example 94] fall in?
Reply: lo

Ask: Which band does O=C(N[C@@H]1COCC[C@H]1N1Cc2ccc(-c3noc(C(F)(F)F)n3)cc2C1=O)C1CC1 [Example 82] fall in?
Reply: mid

Ask: Which band does O=C1c2cc(-c3noc(C(F)(F)F)n3)ccc2CN1[C@@H]1CC[C@@H]1Cc1ccccc1 (relative stereo) [Example 60] fall in?
Reply: hi

Ask: Which band does O=C(N[C@@H]1CCCC[C@H]1N1Cc2ccc(-c3noc(C(F)(F)F)n3)cc2C1=O)C1CC(F)(F)C1 [Example 125] fall in?
Reply: mid

Ask: Which band does O=C(c1ccccc1)N1CCC(N2Cc3ncc(-c4noc(C(F)(F)F)n4)cc3C2=O)CC1 [Example 67] fall in?
Reply: hi

Ask: Which band does O=C(N[C@H]1COCC[C@@H]1N1Cc2ccc(-c3noc(C(F)(F)F)n3)cc2C1=O)[C@H]1CC1(F)F [Example 221] fall in?
Reply: hi

Ask: Which band does O=C(CN1CCCC1=O)N[C@@H]1CCCC[C@H]1N1Cc2ccc(-c3noc(C(F)(F)F)n3)cc2C1=O [Example 121] fall in?
Reply: lo

Ask: Which band does CC1(C(=O)N[C@@H]2CCOC[C@H]2N2Cc3ccc(-c4noc(C(F)(F)F)n4)cc3C2=O)COC1 [Example 192] fall in?
Reply: lo

Ask: Which band does O=C1c2cc(-c3noc(C(F)(F)F)n3)ccc2CN1[C@@H]1CCc2ccccc21 [Example 25] fall in?
Reply: lo

Ask: Which band does O=C1c2ccc(-c3noc(C(F)(F)F)n3)cc2CN1[C@@H]1CCNC[C@H]1c1ccccc1 (relative stereo) [Example 136] fall in?
Reply: hi

Ask: Which band does O=C(c1ccccc1)N1C[C@@H](N2Cc3ccc(-c4noc(C(F)(F)F)n4)cc3C2=O)[C@H](c2ccccc2)C1 (relative stereo) [Example 10] fall in?
Reply: hi

Ask: Which band does CC(=O)N1CC(N2Cc3ncc(-c4noc(C(F)(F)F)n4)cc3C2=O)C1 [Example 75] fall in?
Reply: hi

Ask: Which band does O=C(N[C@@H]1CCCC[C@H]1N1Cc2ccc(-c3noc(C(F)(F)F)n3)cc2C1=O)N1CCOCC1 [Example 139] fall in?
Reply: lo

Ask: Which band does O=C(N[C@@H]1CCCC[C@H]1N1Cc2ccc(-c3noc(C(F)(F)F)n3)cc2C1=O)N1C2CCC1COC2 [Example 145] fall in?
Reply: lo

Ask: Which band does CC(C)(O)C(=O)N[C@@H]1CCCC[C@H]1N1Cc2ccc(-c3noc(C(F)(F)F)n3)cc2C1=O [Example 95] fall in?
Reply: lo

Ask: Which band does O=C1c2cc(-c3noc(C(F)(F)F)n3)ccc2CN1[C@@H]1CNC[C@H]1c1ccccc1 (relative stereo) [Example 3] fall in?
Reply: hi

Ask: Which band does O=C(Cn1c(=O)oc2ccccc21)N1CCC(N2Cc3ccc(-c4noc(C(F)(F)F)n4)cc3C2=O)CC1 [Example 65] fall in?
Reply: hi

Ask: Which band does O=C1CCCN1c1ccccc1N1Cc2ccc(-c3noc(C(F)(F)F)n3)cc2C1=O [Example 184] fall in?
Reply: mid

Ask: Which band does Cc1ccc([C@@H]2CNCC[C@H]2N2Cc3ccc(-c4noc(C(F)(F)F)n4)cc3C2=O)cc1 (relative stereo) [Example 47] fall in?
Reply: hi

Ask: Which band does O=C1c2cc(-c3noc(C(F)(F)F)n3)ccc2CN1[C@H]1CCCC[C@@H]1N1CCOCC1 (relative stereo) [Example 59] fall in?
Reply: hi

Ask: Which band does CC(C)(C)OC(=O)N[C@@H]1CCCC[C@H]1N1Cc2ccc(-c3noc(C(F)(F)F)n3)cc2C1=O (relative stereo) [Example 6] fall in?
Reply: mid

Ask: Which band does CC1(C(=O)N[C@@H]2CCC(F)(F)C[C@H]2N2Cc3ccc(-c4noc(C(F)(F)F)n4)cc3C2=O)COC1 [Example 87] fall in?
Reply: lo

Ask: Which band does CC(C)(C)OC(=O)N[C@H]1CCC[C@@H]1N1Cc2ccc(-c3noc(C(F)(F)F)n3)cc2C1=O [Example 141] fall in?
Reply: lo

The reported numbers originate from patent US10308643B2.
